The reported measurements were obtained from ChEMBL document CHEMBL4433223.

TEST_SYSTEM: von Hippel-Lindau disease tumor suppressor/Androgen receptor (Homo sapiens, UniProt P10275+P40337)
EXPERIMENT_NOTES: Protac activity against VHL/AR in human LNCAP cells assessed as induction of AR degradation incubated for 24 hrs by ELISA relative to untreated control
Type: cell-based
Sequence (P10275 whole entry, looked up): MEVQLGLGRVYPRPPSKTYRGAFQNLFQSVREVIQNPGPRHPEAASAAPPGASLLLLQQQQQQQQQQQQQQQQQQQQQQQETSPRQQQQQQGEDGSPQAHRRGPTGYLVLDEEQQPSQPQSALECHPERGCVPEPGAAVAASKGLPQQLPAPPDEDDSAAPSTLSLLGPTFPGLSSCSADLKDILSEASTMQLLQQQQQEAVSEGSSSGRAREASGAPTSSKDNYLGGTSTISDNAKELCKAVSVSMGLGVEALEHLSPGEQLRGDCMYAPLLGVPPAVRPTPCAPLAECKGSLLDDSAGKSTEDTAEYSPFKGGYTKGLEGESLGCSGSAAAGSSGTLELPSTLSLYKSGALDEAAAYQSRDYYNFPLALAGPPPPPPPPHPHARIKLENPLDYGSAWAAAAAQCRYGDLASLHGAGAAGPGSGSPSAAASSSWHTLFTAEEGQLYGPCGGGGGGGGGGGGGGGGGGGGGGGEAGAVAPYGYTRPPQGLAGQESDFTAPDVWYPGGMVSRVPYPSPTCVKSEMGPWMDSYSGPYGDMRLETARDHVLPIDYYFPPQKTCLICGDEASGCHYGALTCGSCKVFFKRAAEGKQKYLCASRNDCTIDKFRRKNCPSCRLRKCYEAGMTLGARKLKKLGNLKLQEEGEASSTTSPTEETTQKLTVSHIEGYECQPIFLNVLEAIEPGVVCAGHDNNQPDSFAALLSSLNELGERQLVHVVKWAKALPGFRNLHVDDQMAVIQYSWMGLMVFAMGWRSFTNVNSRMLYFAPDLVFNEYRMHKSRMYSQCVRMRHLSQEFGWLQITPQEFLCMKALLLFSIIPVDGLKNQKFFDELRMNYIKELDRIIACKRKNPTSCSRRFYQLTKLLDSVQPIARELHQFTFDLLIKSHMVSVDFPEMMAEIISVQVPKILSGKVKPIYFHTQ
Sequence (P40337 whole entry, looked up): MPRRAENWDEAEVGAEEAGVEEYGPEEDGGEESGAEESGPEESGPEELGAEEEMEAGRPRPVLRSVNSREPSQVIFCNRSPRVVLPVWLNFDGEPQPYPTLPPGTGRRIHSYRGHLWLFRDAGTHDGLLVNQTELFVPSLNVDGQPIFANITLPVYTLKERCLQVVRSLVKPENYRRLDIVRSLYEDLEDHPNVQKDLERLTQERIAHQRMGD
// reported Emax for each item listed

Example entries and their recorded answers appear below.
INSERT INTO results (substance_smiles, obs_value) VALUES
  ('Cc1ncsc1-c1ccc(CNC(=O)[C@@H]2C[C@@H](O)CN2C(=O)[C@@H](NC(=O)COCCCOCCCCCOc2ccc(N3C(=O)N(c4ccc(C#N)c(C(F)(F)F)c4)C(=O)C3(C)C)cc2)C(C)(C)C)cc1', '> 71%'),
  ('CC(C)(C)[C@H](NC(=O)COCCCCCOc1ccc(C(=O)N[C@H]2C(C)(C)[C@H](Oc3ccc(C#N)c(Cl)c3)C2(C)C)cc1)C(=O)N1C[C@H](O)C[C@H]1C(=O)NCc1ccc(-c2cncs2)cc1', '> 71%'),
  ('Cc1ncsc1-c1ccc([C@H](C)NC(=O)[C@@H]2C[C@@H](O)CN2C(=O)[C@@H](NC(=O)COCCCCCOc2ccc(C(=O)N[C@H]3C(C)(C)[C@H](Oc4ccc(C#N)c(Cl)c4)C3(C)C)cc2)C(C)(C)C)cc1', '> 71%'),
  ('Cc1ncsc1-c1ccc(CNC(=O)[C@@H]2C[C@@H](O)CN2C(=O)[C@@H](NC(=O)COCCCOCCN2CCC(c3ccc(N4C(=S)N(c5ccc(C#N)c(C(F)(F)F)c5)C(=O)C4(C)C)cc3)CC2)C(C)(C)C)cc1', '51 to 70%'),
  ('Cc1ncsc1-c1ccc(CNC(=O)[C@@H]2C[C@@H](O)CN2C(=O)[C@@H](NC(=O)COCCc2ccc(-c3ccc(C(=O)N[C@H]4C(C)(C)[C@H](Oc5ccc(C#N)c(Cl)c5)C4(C)C)cc3)cc2)C(C)(C)C)cc1', '> 71%');

Now take the following compound into account.
// field: Emax; key: Cc1ncoc1-c1ccc(CNC(=O)[C@@H]2C[C@@H](O)CN2C(=O)[C@@H](NC(=O)COCc2ccc(OC(=O)N[C@H]3C(C)(C)[C@H](Oc4ccc(C#N)c(Cl)c4)C3(C)C)cc2)C(C)(C)C)cc1 ; value = > 71%

---

// reported DC50 for each item listed
TEST_SYSTEM: von Hippel-Lindau disease tumor suppressor/Androgen receptor (Homo sapiens, UniProt P10275+P40337)
EXPERIMENT_NOTES: Protac activity against VHL/AR in human LNCAP cells assessed as induction of AR degradation incubated for 24 hrs by ELISA
Assay type: cell-based
Sequence (P10275 whole entry): as the sequence (P10275 whole entry, looked up) above
Sequence (P40337 whole entry): as the sequence (P40337 whole entry, looked up) above

Example entries and their recorded answers appear below.
INSERT INTO measurements (substance_smiles, attribute_measured, obs_value) VALUES
  ('Cc1ncsc1-c1ccc(CNC(=O)[C@@H]2C[C@@H](O)CN2C(=O)[C@@H](NC(=O)COCCCOCCN2CCC(c3ccc(N4C(=S)N(c5ccc(C#N)c(C(F)(F)F)c5)C(=O)C4(C)C)cc3)CC2)C(C)(C)C)cc1', 'DC50', '≤ 0.501 µM'),
  ('Cc1ncsc1-c1ccc(CNC(=O)[C@@H]2C[C@@H](O)CN2C(=O)[C@@H](NC(=O)COCCc2ccc(-c3ccc(C(=O)N[C@H]4C(C)(C)[C@H](Oc5ccc(C#N)c(Cl)c5)C4(C)C)cc3)cc2)C(C)(C)C)cc1', 'DC50', '≤ 0.05 µM'),
  ('Cc1ncsc1-c1ccc([C@H](C)NC(=O)[C@@H]2C[C@@H](O)CN2C(=O)[C@@H](NC(=O)COCCCCCOc2ccc(C(=O)N[C@H]3C(C)(C)[C@H](Oc4ccc(C#N)c(Cl)c4)C3(C)C)cc2)C(C)(C)C)cc1', 'DC50', '≤ 0.05 µM'),
  ('Cc1ncoc1-c1ccc(CNC(=O)[C@@H]2C[C@@H](O)CN2C(=O)[C@@H](NC(=O)COCc2ccc(OC(=O)N[C@H]3C(C)(C)[C@H](Oc4ccc(C#N)c(Cl)c4)C3(C)C)cc2)C(C)(C)C)cc1', 'DC50', '≤ 0.05 µM'),
  ('Cc1ncsc1-c1ccc(CNC(=O)[C@@H]2C[C@@H](O)CN2C(=O)[C@@H](NC(=O)COCCCOCCCCCOc2ccc(N3C(=O)N(c4ccc(C#N)c(C(F)(F)F)c4)C(=O)C3(C)C)cc2)C(C)(C)C)cc1', 'DC50', '≤ 0.05 µM');

// field: DC50; key: CC(C)(C)[C@H](NC(=O)COCCCCCOc1ccc(C(=O)N[C@H]2C(C)(C)[C@H](Oc3ccc(C#N)c(Cl)c3)C2(C)C)cc1)C(=O)N1C[C@H](O)C[C@H]1C(=O)NCc1ccc(-c2cncs2)cc1 ; value = ≤ 0.05 µM
